All values here come from patent US5912258A.

- EXPERIMENT_NOTES: MTT: Cell Damaging and Protecting Effect Test
- Assay type: cell-based, male Japanese White rabbit
- EXPERIMENTAL_PARAMETERS: rabbit, gastric mucosa cells, 10^-4 M, smaller value is better, read-out: MTT: cell damaging rate
With a cut-off of 20%, any cytotoxicity at 4 h, 100 µM strictly below it is called y; any cytotoxicity at 4 h, 100 µM meeting it or above is called n.

[
  {
    "MOLECULE_SMILES": "CC(C)=CCC/C(C)=C/COc1ccc(C(=O)Nc2nnc(SCCCN3CCCCC3)s2)cc1",
    "CLASS_LABEL": "n"
  },
  {
    "MOLECULE_SMILES": "CCN(CC)CCSc1nnc(NC(=O)c2cc(C(C)(C)C)cc(C(C)(C)C)c2)s1",
    "CLASS_LABEL": "n"
  },
  {
    "MOLECULE_SMILES": "CCN(CC)CCSc1nnc(NC(=O)c2ccc(C(C)(C)C)cc2)s1",
    "CLASS_LABEL": "n"
  },
  {
    "MOLECULE_SMILES": "CCN(CC)CCSc1nnc(NC(=O)c2ccc(OC/C=C(\\C)CCC=C(C)C)cc2)s1",
    "CLASS_LABEL": "y"
  }
]

Next up:
**Query** is_below(cytotoxicity at 4 h, 100 µM, 20%) for `CCSc1nnc(NC(=O)c2ccc(OC/C=C(\C)CCC=C(C)C)cc2)s1` ?
**Result** y

###

- EXPERIMENT_NOTES: MTT: Cell Damaging and Protecting Effect Test
- Format: cell-based, male Japanese White rabbit
- EXPERIMENTAL_PARAMETERS: rabbit, gastric mucosa cells, 10^-4 M, smaller value is better, read-out: MTT: cell damaging rate
QUANTITY_NAME: cytotoxicity at 4 h, 100 µM (%)
Give bare numbers, in %.

[
  {
    "COMPOUND": "CC(C)=CCC/C(C)=C/COc1ccc(C(=O)Nc2nnc(SCCN3CCCCC3)s2)cc1 [Example 12]",
    "cytotoxicity at 4 h, 100 µM, %": 12
  }
]

For every item below, please supply its cytotoxicity at 4 h, 100 µM.
1. CCN(CC)CCSc1nnc(NC(=O)c2ccc(OC(C)(C)C)cc2)s1 [Example 8]
2. CC(C)N(CCSc1nnc(NC(=O)c2ccc(C(C)(C)C)cc2)s1)C(C)C [Example 5]

**Result**
[-11, -19]

###

- EXPERIMENT_NOTES: MTT: Cell Damaging and Protecting Effect Test
- Format: cell-based, male Japanese White rabbit
- EXPERIMENTAL_PARAMETERS: rabbit, gastric mucosa cells, 10^-4 M, smaller value is better, read-out: MTT: cell damaging rate
Field: cytotoxicity at 4 h, 100 µM. Provide a value for each of the molecules that follow.
Write the numeric value and append its unit.

In the examples that follow, each entry is paired with its recorded cytotoxicity at 4 h, 100 µM.
[
  {
    "MOLECULE_SMILES": "CCCSc1nnc(NC(=O)c2ccc(OC/C=C(\\C)CCC=C(C)C)cc2)s1",
    "EXPERIMENTAL_RESULT": "14%"
  },
  {
    "MOLECULE_SMILES": "CCN(CC)CCSc1nnc(NC(=O)c2ccc(OC(C)C)cc2)s1",
    "EXPERIMENTAL_RESULT": "46%"
  },
  {
    "MOLECULE_SMILES": "CC(C)=CCC/C(C)=C/COc1ccc(C(=O)Nc2nnc(SCc3ccccn3)s2)cc1",
    "EXPERIMENTAL_RESULT": "-13%"
  },
  {
    "MOLECULE_SMILES": "CCN(CC)CCSc1nnc(NC(=O)c2ccc(C(C)C)cc2)s1",
    "EXPERIMENTAL_RESULT": "22%"
  },
  {
    "MOLECULE_SMILES": "CCN(CC)CCCSc1nnc(NC(=O)c2ccc(OC/C=C(\\C)CCC=C(C)C)cc2)s1",
    "EXPERIMENTAL_RESULT": "48%"
  }
]

For every item below, please supply its cytotoxicity at 4 h, 100 µM.
1. CC(C)=CCC/C(C)=C/COc1ccc(C(=O)Nc2nnc(SCC(C)C)s2)cc1
2. CCN(CC)CCSc1nnc(NC(=O)c2ccc(NC(C)(C)C)cc2)s1
3. CC(C)=CCC/C(C)=C/COc1ccc(C(=O)Nc2nnc(SCc3ccccc3)s2)cc1

**Result**
1. -4%
2. -107%
3. 18%
